Recorded % inhibition of TRPV1 activation by 500 uM H2O2 by entry
Biological target: human TRPV1 (Homo sapiens)
Experiment: FLIPR Ca2+ assay, reduction of hydrogen peroxide activation of TRPV1
Type: cell-based
Design: expressed in transfected cells
Details: Dose 4000
Description: Cells were detached with addition of 10 ml of PBS (phosphate buffered saline) by hand shaking gently. Cells were transferred to a 50 ml tube and centrifuged at 850 rpm for 3 minutes to remove PBS. The pelleted cells were re-suspended in 10 ml assay buffer and 90 μl aliquots (˜50,000 cells) per well delivered to a 96-well assay plate containing 10 μl of test compounds (1 mM in assay buffer, […]) or buffer control and incubated at room temperature for 30 minutes.
Hi, when you answer, please include the unit after the number. Thanks!

Here are 3 molecules together with their reported answers.
MOLECULE	MEAS VALUE
CCCCCC=CCC1CCCC1=O (stereo not shown)	50%
CCCCCC1=C(C)CCC1=O [Dihydrojasmone]	98%
CC/C=C/CC1CCCC1=O (stereo not shown)	51%

Alright, here's another molecule for you.
Data request: What value of measured % inhibition of TRPV1 activation by 500 uM H2O2 is listed for `Cn1cccc1C=O` ?
Data returned: 79%

* * *

target: human TRPV1 (Homo sapiens, UniProt Q8NER1); experiment: FLIPR Ca2+ assay, reduction of L-Menthol activation of TRPV1; settings: read-out: % Reduction of L-Menthol TRPV1 Activation
Sequence (Q8NER1 whole entry): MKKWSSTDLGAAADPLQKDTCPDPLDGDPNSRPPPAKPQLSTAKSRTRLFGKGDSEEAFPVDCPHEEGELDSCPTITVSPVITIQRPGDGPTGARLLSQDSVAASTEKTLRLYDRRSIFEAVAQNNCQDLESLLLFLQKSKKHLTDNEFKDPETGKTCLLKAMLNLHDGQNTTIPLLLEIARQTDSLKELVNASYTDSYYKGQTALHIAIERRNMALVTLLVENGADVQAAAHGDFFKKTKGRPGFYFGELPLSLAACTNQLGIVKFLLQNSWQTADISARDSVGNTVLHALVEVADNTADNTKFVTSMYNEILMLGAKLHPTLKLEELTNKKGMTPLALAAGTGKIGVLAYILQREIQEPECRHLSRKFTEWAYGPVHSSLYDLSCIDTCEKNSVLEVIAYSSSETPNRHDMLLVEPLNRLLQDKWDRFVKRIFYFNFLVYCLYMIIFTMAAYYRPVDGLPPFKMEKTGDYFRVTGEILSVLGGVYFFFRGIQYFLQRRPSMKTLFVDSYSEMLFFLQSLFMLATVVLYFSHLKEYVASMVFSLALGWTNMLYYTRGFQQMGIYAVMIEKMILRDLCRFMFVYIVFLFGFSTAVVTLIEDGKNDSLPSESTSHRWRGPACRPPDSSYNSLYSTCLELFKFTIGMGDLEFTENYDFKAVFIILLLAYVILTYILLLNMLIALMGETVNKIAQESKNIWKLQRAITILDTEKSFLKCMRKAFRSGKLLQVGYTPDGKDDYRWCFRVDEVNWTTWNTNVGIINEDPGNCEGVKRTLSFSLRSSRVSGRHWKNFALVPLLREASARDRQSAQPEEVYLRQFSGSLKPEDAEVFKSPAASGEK
Structures can show the parent of a compound that is named as a salt.
Classification by inhibition at 100 µM | ranges: range A: < 30%; range B: ≥ 30% and < 40%; range C: ≥ 40%

See these solved cases before continuing.
MOLECULE	EXPERIMENTAL TARGET	CLASS NAME
Cc1nc(C)c(C)nc1C	human TRPV1 (Homo sapiens, UniProt Q8NER1)	range C
CCCCCCCCCC(C)=O	human TRPV1 (Homo sapiens, UniProt Q8NER1)	range B
COc1ccc(COC=O)cc1 [4-methoxybenzyl formate]	human TRPV1 (Homo sapiens, UniProt Q8NER1)	range A
C=CCOC(=O)CCC1CCCCC1 [allyl cyclohexanepropionate]	human TRPV1 (Homo sapiens, UniProt Q8NER1)	range A
C=Cc1scnc1C	human TRPV1 (Homo sapiens, UniProt Q8NER1)	range B
CC(=O)c1ccccc1O [2′-hydroxyacetophenone]	human TRPV1 (Homo sapiens, UniProt Q8NER1)	range C

Data request: # classify by inhibition at 100 µM band: O=C(O)c1ccc(O)c(O)c1 [3,4-dihydroxybenzoic acid]
Data returned: range A

Data request: Field entry: `COc1ccccc1C=O`
Data returned: range C

Data request: Param item: CCCCCCCCCCCCCCCCCC(=O)OCC(O)CO (racemic)
Data returned: range A

* * *

target: human TRPV1 (Homo sapiens); assay: FLIPR Ca2+ assay, reduction of capsaicin activation of TRPV1; assay type: cell-based; parameters: expressed in transfected cells; conditions: with compound, Dose 1000, 350 nM Capsaicin
READOUT LABEL: Ca++ counts
Reply briefly: the number, and no unit.

Answered examples (3):
COMPOUND	Ca++ counts
CC(CC=O)CCCC(C)(C)O (centres unmarked) [Hydroxycitronellal]	14728
CC(C)=CCC/C(C)=C/CC1CCCC1=O (centres unmarked) [Apritone]	13526
COC(=O)c1ccccc1N(C)C [Methyl N,N-Dimethylanthranilate]	15329

Data request: Look up Ca++ counts: CC1=CC(=O)C(C(C)C)CC1 [L-Piperiton]
Data returned: 13225

Data request: Can you check CC(=O)OC1CC2CCC1(C)C2(C)C (single isomer, unassigned; (-)) [(−)-Bornyl Acetate] next?
Data returned: 13976

Data request: Try this compound next: CC(C)C(=O)O[C@@H]1C[C@H]2CC[C@]1(C)C2(C)C [Isobornyl Isobutyrate]
Data returned: 14803

Data request: And what about the compound CCOc1nccnc1CC [2-Ethoxy-3-ethylpyrazine] ?
Data returned: 14878

Data request: Entry to check: CC(=O)OC1=C(C)OC(C)C1=O (centres unmarked) [Strawberry Furanone Acetate, 4-Acetoxy-2,5-dimethyl-3(2H)-furanone]
Data returned: 14578

* * *

Target: human TRPV1 (Homo sapiens, UniProt Q8NER1)
Assay: FLIPR Ca2+ assay, reduction of hydrogen peroxide activation of TRPV1
Format: cell-based
Set-up: expressed in transfected cells
Details: antagonist 400 μM against 500 μM hydrogen peroxide
Experimental: Cells were detached with addition of 10 ml of PBS (phosphate buffered saline) by hand shaking gently. Cells were transferred to a 50 ml tube and centrifuged at 850 rpm for 3 minutes to remove PBS. The pelleted cells were re-suspended in 10 ml assay buffer and 90 μl aliquots (˜50,000 cells) per well delivered to a 96-well assay plate containing 10 μl of test compounds (1 mM in assay buffer, […]) or buffer control and incubated at room temperature for 30 minutes.
READOUT LABEL: % Reduction of Hydrogen Peroxide TRPV1 Activation (%)
Write the answer as a number in %, unit excluded.

Here's what some known entries look like.
COMPOUND	MEAS VALUE
Cn1cccc1C=O [1-Methyl-2-pyrole carboxaldehyde]	79
CCCCCC1=C(C)CCC1=O [Dihydrojasmone]	98
CC/C=C/CC1CCCC1=O (stereo not shown) [Jasminone B]	51

Here's the next entry for you.
Data request: What value of % Reduction of Hydrogen Peroxide TRPV1 Activation has been recorded for this entry: CCCCCC=CCC1CCCC1=O (stereo not shown) [Octenyl Cyclopentanone]
Data returned: 50

* * *

target: human TRPA1 (Homo sapiens); experiment: FLIPR Ca2+ assay, reduction of hydrogen peroxide activation of TRPA1; format: cell-based; set-up: expressed in transfected cells
Sequence (O75762 whole entry): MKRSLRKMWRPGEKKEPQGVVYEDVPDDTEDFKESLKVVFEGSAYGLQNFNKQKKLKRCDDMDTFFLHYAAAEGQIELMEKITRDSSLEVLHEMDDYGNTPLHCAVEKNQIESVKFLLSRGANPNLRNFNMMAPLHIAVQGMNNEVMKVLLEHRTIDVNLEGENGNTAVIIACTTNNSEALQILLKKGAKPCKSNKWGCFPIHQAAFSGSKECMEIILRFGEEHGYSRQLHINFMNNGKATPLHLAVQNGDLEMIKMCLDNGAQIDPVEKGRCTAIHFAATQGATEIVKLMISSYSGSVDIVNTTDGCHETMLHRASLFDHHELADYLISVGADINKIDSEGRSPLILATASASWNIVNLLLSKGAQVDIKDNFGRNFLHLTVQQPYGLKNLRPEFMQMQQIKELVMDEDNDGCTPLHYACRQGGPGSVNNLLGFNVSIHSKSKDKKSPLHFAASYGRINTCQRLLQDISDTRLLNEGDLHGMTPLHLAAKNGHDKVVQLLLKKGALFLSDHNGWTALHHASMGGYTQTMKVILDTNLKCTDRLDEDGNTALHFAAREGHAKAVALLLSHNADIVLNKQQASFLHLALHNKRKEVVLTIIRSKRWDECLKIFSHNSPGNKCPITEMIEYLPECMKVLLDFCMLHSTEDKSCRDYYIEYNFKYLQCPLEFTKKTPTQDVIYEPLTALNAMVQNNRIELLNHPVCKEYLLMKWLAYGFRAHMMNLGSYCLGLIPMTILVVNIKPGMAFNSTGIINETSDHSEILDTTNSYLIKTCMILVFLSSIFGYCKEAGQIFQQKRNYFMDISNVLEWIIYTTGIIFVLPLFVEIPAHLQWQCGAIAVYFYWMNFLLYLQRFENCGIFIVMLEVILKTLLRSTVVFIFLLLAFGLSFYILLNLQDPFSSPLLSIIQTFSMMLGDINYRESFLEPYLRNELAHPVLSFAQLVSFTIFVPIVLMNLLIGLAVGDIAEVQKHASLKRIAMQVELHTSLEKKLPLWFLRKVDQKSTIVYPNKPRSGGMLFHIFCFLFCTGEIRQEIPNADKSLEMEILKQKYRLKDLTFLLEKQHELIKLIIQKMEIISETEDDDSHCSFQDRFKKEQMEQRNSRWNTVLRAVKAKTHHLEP
Reported Average Ca++ Counts by item:
Lab book: enter the figure in Counts, no units written.

COMPOUND	EXPERIMENTAL TARGET	UNITS LABEL	Average Ca++ Counts
CCCCCCCCCC(C)=O [2-undecanone]	human TRPA1 (Homo sapiens)	Counts	4581.0
COC(=O)c1ccccc1 [methylbenzoate]	human TRPA1 (Homo sapiens)	Counts	3817.0
NC(N)=O [urea]	human TRPA1 (Homo sapiens)	Counts	5045.5
CC(=O)CCc1ccc2c(c1)OCO2 [4-benzo[1,3]dioxol-5-yl-butan-2-one]	human TRPA1 (Homo sapiens)	Counts	5431.5

Data request: Entry under review: Cc1ccc(C(C)(C)O)cc1 [p-cymen-8-ol] . Reported Average Ca++ Counts?
Data returned: 3476.5

Data request: Also, Cc1ccc(C(C)C)cc1O [carvacrol] please.
Data returned: 3464.5

Data request: Here is the next compound: CC1=CC(=O)[C@@H]2C[C@H]1C2(C)C (racemic) [dl-verbenone]
Data returned: 3231.0

Data request: Okay, and CCCCO [n-butyl alcohol] ?
Data returned: 3009.0

Data request: Same read-out for CCCCOC(=O)c1ccc(O)cc1 [butyl 4-hydroxybenzoate] ?
Data returned: 411.0

Data request: Now try OCc1ccco1 [furfuryl alcohol] .
Data returned: 5585.5

Data request: Next compound up: c1ccc(SSc2ccccc2)cc1 [diphenyl disulfide]
Data returned: 1112.0

Data request: Ok, now `CC1=C(O)C(=O)CC1.O`
Data returned: 4172.0

Data request: What do you get for O=C1O[C@H]([C@H](O)CO)C([O-])=C1O.[Na+] [sodium erythorbate] ?
Data returned: 3204.5

* * *

target: human TRPA1 (Homo sapiens); assay: FLIPR Ca2+ assay, reduction of hydrogen peroxide activation of TRPA1; assay type: cell-based; set-up: expressed in transfected cells; conditions: compound 100 μM against 200 μM hydrogen peroxide; Sets 1-4; read-out: % Reduction of Hydrogen Peroxide TRPA1 Activation
Reported inhibition at 100 µM values for the following molecules.
Numbers only here, please. The scale is %.

Guide cases for inhibition at 100 µM, answers given:
MOLECULE	EXPERIMENTAL TARGET	inhibition at 100 µM (%)
CC(CC=O)CCCC(C)(C)O (stereo not drawn) [Hydroxycitronellal]	human TRPA1 (Homo sapiens)	40.4
CC(S)C(C)S (stereo not drawn) [2,3-butanedithiol]	human TRPA1 (Homo sapiens)	87.9
CC=C(C=O)c1ccccc1 [2-phenyl-2-butenal]	human TRPA1 (Homo sapiens)	56.3

Now let's try a different one.
Data request: # inhibition at 100 µM lookup, item CCCC(=O)CC [3-hexanone]
Data returned: 52

* * *

biological target: human TRPA1 (Homo sapiens); assay: FLIPR Ca2+ assay, reduction of hydrogen peroxide activation of TRPA1; type: cell-based; parameters: expressed in transfected cells; settings: compound 100 μM against 200 μM hydrogen peroxide; Sets 1-4
READOUT LABEL: Average Ca++ Counts (Counts)
// return numeric value only (unit: Counts, not printed)

Solved cases (6 shown):
MOLECULE	READOUT LABEL	MEAS VALUE
O=C(CCc1ccc(O)cc1)c1c(O)cc(O)cc1O [phloretin]	Average Ca++ Counts	215.0
CC(=O)OCC(C)(C)Cc1ccccc1	Average Ca++ Counts	3367.0
CC(=O)c1ccc(C)cc1 [4′-methylacetophenone]	Average Ca++ Counts	3244.5
CCCCCCCCCC(C)O (stereo not drawn) [2-undecanol]	Average Ca++ Counts	3049.0
CCC(C)CS (stereo not drawn) [2-methyl-1-butanethiol]	Average Ca++ Counts	3208.0
CCCCCO [amyl alcohol]	Average Ca++ Counts	3149.0

Data request: Which Average Ca++ Counts value belongs to O=CCc1ccccc1 [phenylacetaldehyde] ?
Data returned: 2578.5

Data request: Repeat for the following molecule: CC(C)CCCC(C)CCO (stereo not drawn) [3,7-dimethyl-1-octanol, 95%, 3,7-dimethyl-1-octanol]
Data returned: 5168.0

Data request: Query OCc1ccccc1 [phenyl-methanol] next
Data returned: 5244.5

Reference source: patent US20130315843A1
